- assayed_system: T1, Rat SLC34A2 (rat, UniProt Q9JJ09 1-695)
- T1 construct: whole, on cells; also called Rat1E cells expressing SLC34A2 (Rat)
- T1 sequence (looked up): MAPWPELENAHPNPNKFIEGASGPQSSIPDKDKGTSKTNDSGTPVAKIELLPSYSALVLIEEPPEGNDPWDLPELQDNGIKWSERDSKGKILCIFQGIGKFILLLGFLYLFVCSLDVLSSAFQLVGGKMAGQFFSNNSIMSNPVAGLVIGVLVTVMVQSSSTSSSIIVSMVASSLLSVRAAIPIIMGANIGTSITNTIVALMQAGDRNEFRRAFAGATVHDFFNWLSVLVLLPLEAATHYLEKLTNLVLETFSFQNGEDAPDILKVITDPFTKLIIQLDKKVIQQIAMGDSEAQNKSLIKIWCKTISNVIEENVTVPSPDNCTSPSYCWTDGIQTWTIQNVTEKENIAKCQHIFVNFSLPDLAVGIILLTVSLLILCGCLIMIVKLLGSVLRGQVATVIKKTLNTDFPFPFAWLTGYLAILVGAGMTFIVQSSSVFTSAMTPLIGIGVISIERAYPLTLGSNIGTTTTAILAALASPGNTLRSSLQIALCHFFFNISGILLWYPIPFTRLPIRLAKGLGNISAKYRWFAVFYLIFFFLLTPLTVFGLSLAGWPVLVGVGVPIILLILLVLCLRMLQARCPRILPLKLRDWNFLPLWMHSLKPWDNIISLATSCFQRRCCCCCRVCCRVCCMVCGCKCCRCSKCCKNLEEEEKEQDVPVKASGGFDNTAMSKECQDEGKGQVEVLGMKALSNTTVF
- method_description: binding affinity on Rat1E cells expressing rat SLC34A2
The reader will find reported Kd values listed item by item below.

A selection of reference data follows.
cHv83-3a23.G1(L328C)k (antibody, V domains shown, the name says L328C in the IgG1 constant region; also called [Ag]AB-2; unconjugated antibody of OT1 / OT#1) VH: EVQLVESGGGLVQPGGSLRLSCAASGFTFSSYVMHWVRQAPGKGLEYVSGVSSSGDSTFYVDSVKGRFTISRDNSKNTLYLQMGSLRAEDMAVYYCARGGITGAPLVFDIWGQGTMVTVSS VL: DIQMTQSPSSLSASVGDRVTITCRASQSISRFLNWYQQKPGKAPKVLIYVTSSLQSGVPSRFSGSGSGTDFTLTISSLQPEDFATYYCQQSYNTPITFGQGTRLEIKR : 0.689 nM
cHv83-1b15.G1(L328C)k-AGL-01332-93 (OT#2) (other, AGL-01332-93 drug-linker conjugated to the antibody; engineered Cys at 328 (L328C) lies in the IgG1 constant region, outside the VH pieces given, Human IgG1 (L328C) / kappa) VH: EVQLVESGGGWVQPGGSLRLSCAASGFTFSSHIMYWVRQAPGKGLEYVSGISSNGLSSYYVDSVKGRFTISRDNSKNLLYVHMGSLKPEDMAMYYCARGGRDRVPAVFDYWGQGTLVTVSS VL: DIQMTQSPSSLSASIGDRVTITCRASQSIGTFLNWYQQKPGKAPKVLIYVASSLQSGVPSRFIGSGSGTDFTLTISSLQPEDFATYYCQQSYSVPITFGQGTRLEIKR : 0.913 nM

# binder cHv83-1b15.G1(L328C)k (antibody, V domains shown, the name says L328C in the IgG1 constant region; also called [Ag]AB-3; cHv83-1b15.G1k(L328C)k) VH: EVQLVESGGGWVQPGGSLRLSCAASGFTFSSHIMYWVRQAPGKGLEYVSGISSNGLSSYYVDSVKGRFTISRDNSKNLLYVHMGSLKPEDMAMYYCARGGRDRVPAVFDYWGQGTLVTVSS VL: DIQMTQSPSSLSASIGDRVTITCRASQSIGTFLNWYQQKPGKAPKVLIYVASSLQSGVPSRFIGSGSGTDFTLTISSLQPEDFATYYCQQSYSVPITFGQGTRLEIKR ; its Kd = 0.246 nM

# binder cHv83-3a23.G1(L328C)k-AGL-01332-93 (OT#1) (other, AGL-01332-93 drug-linker conjugated to the antibody; engineered Cys at 328 (L328C) lies in the IgG1 constant region, outside the VH pieces given, Human IgG1 (L328C) / kappa) VH: EVQLVESGGGLVQPGGSLRLSCAASGFTFSSYVMHWVRQAPGKGLEYVSGVSSSGDSTFYVDSVKGRFTISRDNSKNTLYLQMGSLRAEDMAVYYCARGGITGAPLVFDIWGQGTMVTVSS VL: DIQMTQSPSSLSASVGDRVTITCRASQSISRFLNWYQQKPGKAPKVLIYVTSSLQSGVPSRFSGSGSGTDFTLTISSLQPEDFATYYCQQSYNTPITFGQGTRLEIKR ; its Kd = 0.686 nM
